Data provenance: the RNAGym collection of RNA variant scans (doi:10.1073/pnas.2313332121)

B1: TPR 5TU (parent)
chain: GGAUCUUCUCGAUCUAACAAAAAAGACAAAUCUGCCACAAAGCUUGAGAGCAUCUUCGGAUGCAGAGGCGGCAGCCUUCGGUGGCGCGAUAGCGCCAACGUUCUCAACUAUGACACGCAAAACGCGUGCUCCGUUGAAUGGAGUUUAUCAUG

# Variants of: B1
# protocol: polymerase ribozyme fitness, log enrichment relative to wild type (log ratio); higher = more active; in vitro selection for triplet polymerase activity
Fewer inactive variants are shown than the library holds.

# variant_designation, polymerase ribozyme fitness (log ratio)
data = [
    ("C96U G143C U146C", -1.75),
    ("U9G C27A C96A", "≤ -4.2"),
    ("G58U U61G C63U G74C G141C", "≤ -4.2"),
    ("A49U C57G U61A A73G G88C A97C U135A G152A", "≤ -4.2"),
    ("G50C G94A C129U U135G", "≤ -4.2"),
    ("A41C C54U A110G", -2.74),
    ("U15C U145C A150G", -0.684),
    ("G11A G50U U82C G86A C116A", -3.47),
    ("A12U A28C C57U G68A G92C G126U", "≤ -4.2"),
    ("A39U U56A C93U", -3.55),
    ("U4C A16C U55A G74U C85U C87U C103U U146A A147C", "≤ -4.2"),
    ("G11A G94U A113C C114U A122C G143U C149U", "≤ -4.2"),
    ("C54G U56A C57A G81U C93U", -0.912),
    ("A21U C72U A122U", -0.472),
    ("C51U C95A A98U C116G", 0.822),
    ("C27U C57A A66C G71A C96A U130A", "≤ -4.2"),
    ("A40C G50A A60U G88U G92C C95G G100U", "≤ -4.2"),
    ("C85A G124C", -1.69),
    ("A24U U31C G68U G70A G94U C116G U139G", "≤ -4.2"),
    ("U45A U82G C129A U139A U145G", "≤ -4.2"),
    ("C18U A41C C72U C93G U104G", "≤ -4.2"),
    ("G83U G100U C103A C131U", "≤ -4.2"),
    ("U6C U9A A30U A49U C85U U146C", "≤ -4.2"),
    ("G92A C116A G143C A150G", "≤ -4.2"),
    ("C14G A19G G46A C72G G84U", "≤ -4.2"),
    ("G46C C54U C95U C116U C118G", -2.25),
    ("C54U A110C C114U A121U", -4.15),
    ("G25C C72U A91G A119U U127A", "≤ -4.2"),
    ("U31A U53A", -0.327),
    ("U45A A73U G83A G128U U151A", "≤ -4.2"),
    ("C18G C54U U56A A73G A91G", -3.27),
    ("G50U C87U G152U", -4.17),
    ("U139G A150C", -3.84),
    ("C5A U15C U56A C105G A107C G117U U139C G143C U148C", "≤ -4.2"),
    ("C38U U44A G70C U134G", "≤ -4.2"),
    ("G50A C51A C114U U134C G136A U151G", "≤ -4.2"),
    ("A39G U77A G143C", "≤ -4.2"),
    ("G70A A73U G133A U135G", "≤ -4.2"),
    ("U90G C93G C99U", "≤ -4.2"),
    ("A19U A22C G94C C96G C123U G128A U139C U146C", "≤ -4.2"),
    ("A24G C32A U33G G65A G80A A98U G126C U145G A147C", "≤ -4.2"),
    ("C54U C63G G67C G143A", "≤ -4.2"),
    ("A40G G58C C79G C87U G136U", "≤ -4.2"),
    ("A89G A122C", -1.77),
    ("C38U G92A U146A", -2.92),
    ("A24U A52U C85U", -1.43),
]
